test system: DU-145; test: NCI tumour cell line growth inhibition, 48 h
Active and inactive are the calls of the source. No stated cut-off is given here; in the data, active = GI50 up to about 1.1 µM and inactive = higher.
Outcome codes: active, inactive

>>> print(df.to_string())
                                   molecule  discretelabel
0  O=C1CCC(N2C(=O)c3ccccc3C2=O)C(=O)N1 (stereo not given) [THALIDOMIDE]       inactive
1         O=C(SCc1cccc2ccccc12)c1ccc(Cl)cc1       inactive
2     FC(F)(Sc1nc2ccccc2[nH]1)c1nc2ccccc2o1       inactive
3  Nc1ccc(Oc2ccc(C3(c4ccc(Oc5ccc(N)c(O)c5)cc4)C4CC5C6CC7CC5C3C(C7)C6C4)cc2)cc1O       inactive
4  CSC1=Nc2ccccc2-c2nc(-c3ccccc3)cc(-c3ccccc3)c2C1       inactive
5       CCSc1nc(=S)n(-c2ccccc2)c(C)c1C(C)=O       inactive
6  CCN(CC)CC(=O)O[C@]1(CC)C(=O)OCc2c1cc1n(c2=O)Cc2cc3ccccc3nc2-1         active
7  C=C1C(=O)OC2C1CC(O)/C(C)=C\CCC1(C)OC21 (stereo not given)       inactive
8  CC(C)=CCC/C(C)=C/COC(C)(C)C1=CCC(C)CC1.CC(C)=CCC/C(C)=C/COC1CC(C)CCC1=C(C)C (stereo not given)       inactive
9  O=C1c2c(O)cc(O)cc2OC(c2ccc(O)cc2O)C1O (stereo not given)       inactive

---

test system: HCT-116; experiment: NCI tumour cell line growth inhibition, 48 h
Calls of active or inactive are those of the source. Rule as the data show it: active = GI50 up to about 1.1 µM and inactive = higher.
Outcome codes: active, inactive

compound	discreteLabel
COc1cc(C2c3cc4c(cc3[C@@H](Nc3cccc(CO)c3)C3COC(=O)[C@H]23)OCO4)cc(OC)c1O (some centres undefined)	active
O=C(O)CCCc1ccc2c(c1)CC1(C2)Cc2ccc(CCCC(=O)O)cc2C1	inactive
N#CC(C#N)=CSc1ccccc1	inactive
O=c1c2cc(I)ccc2nc(-c2cccs2)n1O	inactive
O=C1C2C=CC(n3[nH]c(=O)n(Cc4ccccc4)c3=O)CC2C(=O)N1c1cccc(Cl)c1 (centres undefined)	inactive
COc1cc2c(OC)c3cc(C)oc(=O)c3c(O)c2c(O)c1-c1c(OC)cc2c(OC)c3cc(C)oc(=O)c3c(O)c2c1O	inactive
O=c1oc2ccc(-n3c(=O)c4ccccc4c4ccccc4c3=O)cc2c2ccccc12	inactive
CCOC(=O)c1cn(Cc2ccccc2)c(=O)n1Cc1ccccc1	inactive
CCCCNc1nc(N)nc(Nc2ccc(Br)cc2)c1N=O	inactive
N#Cc1ccc(Oc2nc3ccccc3nc2-c2ccccc2)cc1	inactive
Cc1nc(Nc2ccc([N+](=O)[O-])cc2)sc1C(/C=C/c1ccc(N(C)C)cc1)=N/NC(=O)c1ccccc1	inactive
O=C1NC(NCc2ccc(F)cc2)=N/C1=C\c1ccccc1Cl	inactive
CC1(Br)Cc2ccccc2C1=O (centres undefined)	inactive
Nc1nc(N)c(N=O)c(Nc2ccc(O)cc2)n1	inactive
CCC12CC[C@H](C#N)N3CCc4c(n(c5ccccc45)C(=O)C1)C32 (some centres undefined)	inactive
Cc1ccc(CCCC(=O)O)cc1C	inactive
CCOC(=O)C1(C#N)C(c2ccccc2)CC(O)(c2ccc(OC)cc2)C(C(=O)c2ccc(OC)cc2)C1c1ccccc1 (centres undefined)	inactive
COc1cc2c(C)cc(O)cc2c2cc(O)c(C)cc12	inactive
Cn1c(=O)c2nc(SCCN3CCOCC3)[nH]c2n(C)c1=S	inactive
Sc1ncc(-c2cncc(-c3cnc(S)nc3)n2)cn1	inactive
COc1cc(C2C3=C(COC3=O)Oc3cc4c(cc32)OCO4)cc(OC)c1OC(C)=O (centres undefined)	active
CN(C)CC1CCCC/C1=N\OC(=O)c1ccccc1 (centres undefined)	inactive
Cc1c(/C=C2\CC/C(=C\c3[nH]c(C(=O)OC(C)(C)C)c(C)c3C)C2=O)[nH]c(C(=O)OC(C)(C)C)c1C	inactive
O=C1/C(=C/c2ccccc2[N+](=O)[O-])N=C(c2ccccc2)N1C1Nc2cc3c(cc2S1)NC(N1C(=O)/C(=C/c2ccccc2[N+](=O)[O-])N=C1c1ccccc1)S3 (centres undefined)	inactive
CC1(C)C2CCC(O)(C2)C1N (centres undefined)	inactive
COc1ccccc1NC1=NCC(C)S1 (centres undefined)	inactive
NS(=O)(=O)c1ccc(NC2=CC(=O)C(=O)c3ccccc32)cc1	inactive
CC1(Br)S(=O)(=O)OCCOS1(=O)=O	inactive
CC(C)C1=C(O)C(=O)C2=C(C1=O)C(OC=O)C(O)C1C(C)(C)CCCC21C (centres undefined)	inactive
Cc1c(OC(C)C(=O)O)ccc2c(-c3ccccc3)cc(=O)oc12 (centres undefined)	inactive
C1CN(C23OC4(N5CCOCC5)C5C6CC(C7C6C4C72)C53)CCO1 (centres undefined)	inactive
O=C1O[C@H](c2ccccc2)[C@@H]2CC3(CCN12)OCCO3	inactive
S=C=NCCc1ccccc1 [PHENETHYLISOTHIOCYANATE]	active
Cc1ccc2c(O)cc(-c3cc4ccccc4s3)nc2n1	inactive
CCCCCCc1cc2cc(-c3csc(CC#N)n3)c(=O)oc2cc1O	inactive
Cn1/c(=N\c2ccc(Cl)cc2)sc2ccccc21	inactive
COC(=O)N1C[C@@]2(C=CC3(CC2)OCCO3)c2ccccc21	inactive
CCOCc1nc2c(OC)c(-c3nc4ccc(N5CCN(C)CC5)cc4[nH]3)cc(OC)c2[nH]1	inactive
CCOC(=O)C(C)c1nc2c(Cl)c3ncccc3cc2[nH]c1=O (centres undefined)	inactive
Oc1ccc(-c2nc3cc(C(F)(F)F)ccc3n2CC2CCCN3CCCCC23)cc1 (centres undefined)	inactive
OC1(c2ccc(Cl)cc2)c2ccc3ccccc3c2C2=N[C@H]3CCCC[C@@H]3N21 (some centres undefined)	inactive
COC(=O)[C@]1(c2cc3ccccc3n2S(=O)(=O)c2ccccc2)CC2CN(C(C)=O)C1CC2=O (some centres undefined)	inactive
FC(F)(Sc1nc2ccccc2[nH]1)c1nc2ccccc2o1	inactive
C/C(CN1C(=O)c2ccccc2C1=O)=N\NS(=O)(=O)c1cccc([N+](=O)[O-])c1	inactive

Data provenance: ChEMBL document CHEMBL1201862
